- System: soluble epoxide hydrolase (sEH)
- ASSAY_PROCEDURE: Fluorescent assay for mouse and human soluble epoxide hydrolase (CMNPC substrate)
- Format: biochemical
- TEST_CONDITIONS: inhibitor concentration 50000 nM
MEASURED_QUANTITY: % Inh (%)

Known results for compounds:
O=C(Nc1ncc(C(=O)O)s1)NC12CC3CC(CC(C3)C1)C2; 81
O=C(Nc1ccc(C(F)(F)F)cc1)Nc1cccc(C(=O)N2CCOCC2)n1; 96
O=C(Nc1cccc(C(F)(F)F)c1)Nc1cccc(C(=O)N2CCOCC2)n1; 96

a: O=C(Nc1ccc(Cl)cc1)Nc1cccc(C(=O)N2CCOCC2)n1
b: COc1ccc(-c2nnc(NC(=O)NC34CC5CC(CC(C5)C3)C4)s2)cc1
Exam item: Lab note: check whether a or b shows the higher recorded % Inh. Refer to your chosen item by its label in the answer.
Marked response: a

====

Readings of melting point for the listed compounds

Examples with their reported melting point follow.
COc1ccc(-c2cc(NC(=O)Nc3ccc(Cl)cc3)on2)cc1; 165 to 170 °C
COc1ccc(-c2nnc(NC(=O)NC34CC5CC(CC(C5)C3)C4)s2)cc1; 324 to 328 °C

# compound O=C(Nc1ccc(Cl)cc1)Nc1cccc(C(=O)N2CCOCC2)n1 ; its melting point = 205 to 208 °C

====

- System: soluble epoxide hydrolase (sEH)
- ASSAY_PROCEDURE: Fluorescent assay for mouse and human soluble epoxide hydrolase (CMNPC substrate)
- Format: biochemical
- TEST_CONDITIONS: inhibitor concentration 50 nM
MEASURED_QUANTITY: % Inh (%)

# example entries with known answers
O=C(Nc1ccc(C(F)(F)F)cc1)Nc1ccc(C(=O)N2CCOCC2)s1; 98
O=C(Nc1ccc(C(F)(F)F)cc1)Nc1cc(C(=O)N2CCOCC2)cs1; 73

1: COc1ccc(NC(=O)NC23CC4CC(CC(C4)C2)C3)cn1
2: O=C(Nc1ccc(Oc2ccccc2)nc1)NC12CC3CC(CC(C3)C1)C2
Exam item: Parameter check: reported % Inh is higher for which label, 1 or 2 ? # respond with the chosen item's label
Marked response: 2
(2: 95%, 1: 64%)

====

- Test system: soluble epoxide hydrolase (sEH)
- ASSAY_PROCEDURE: Fluorescent assay for mouse and human soluble epoxide hydrolase (CMNPC substrate)
- Format: biochemical
- TEST_CONDITIONS: inhibitor concentration 500 nM
MEASURED_QUANTITY: % Inh (%)

COc1ccc(-c2cc(NC(=O)Nc3ccc(C(F)(F)F)cc3)[nH]n2)cc1 [Compound 2]; 89
O=C(Nc1ccc(Cl)cc1)Nc1cc(C(=O)N2CCOCC2)ccn1 [Compound 19]; 72
O=C(Nc1ccc(C(F)(F)F)cc1)Nc1cc(C(=O)N2CCOCC2)ccn1 [Compound 17]; 91
O=C(Nc1ccc(C(F)(F)F)cc1)Nc1cncc(C(=O)N2CCOCC2)c1 [Compound 23]; 75
CCOC(=O)c1cnc(NC(=O)NC23CC4CC(CC(C4)C2)C3)s1 [Compound 21]; 97
CC(=O)Nc1ccc(NC(=O)Nc2ccc(Cl)cc2)cn1 [Compound 6]; 87
O=C(Nc1ccc(C(F)(F)F)cc1)Nc1ccc(C(=O)N2CCOCC2)cn1 [Compound 8]; 69

====

- Tested on: soluble epoxide hydrolase (sEH)
- ASSAY_PROCEDURE: Fluorescent assay for mouse and human soluble epoxide hydrolase (CMNPC substrate)
- Format: biochemical
- TEST_CONDITIONS: inhibitor concentration 5000 nM
MEASURED_QUANTITY: % Inh (%)

The examples below pair each entry with its known result.
O=C(Nc1cccc(C(F)(F)F)c1)Nc1cc(C(=O)N2CCOCC2)cs1; 89
COc1ccc(-c2cc(NC(=O)Nc3ccc(Cl)cc3)on2)cc1; 92
COc1ccc(-c2cc(NC(=O)NC34CC5CC(CC(C5)C3)C4)[nH]n2)cc1; 89

I: COc1ccc(-c2cc(NC(=O)Nc3cccc(C(F)(F)F)c3)[nH]n2)cc1
II: O=C(Nc1cncc(C(=O)N2CCOCC2)c1)Nc1cccc(C(F)(F)F)c1
Exam item: Lab note: check whether I or II shows the higher recorded % Inh. To answer, give the label that identifies your chosen option.
Marked response: I

====

Listed below: melting point values for each entry.

Completed entries (count: 8):
O=C(Nc1ccc(C(F)(F)F)cc1)Nc1cccc(C(=O)N2CCOCC2)n1; 208 to 210 °C
O=C(Nc1ccc(Cl)cc1)Nc1cc(C(=O)N2CCOCC2)ccn1; 189 to 192 °C
O=C(Nc1cccc(C(F)(F)F)c1)Nc1cc(C(=O)N2CCOCC2)cs1; 210 to 215 °C
COc1ccc(-c2cc(NC(=O)Nc3ccc(C(F)(F)F)cc3)[nH]n2)cc1; 228 to 231 °C
CC(=O)Nc1ccc(NC(=O)NC23CC4CC(CC(C4)C2)C3)cn1; 252 to 254 °C
O=C(Nc1cncc(C(=O)N2CCOCC2)c1)Nc1cccc(C(F)(F)F)c1; 75 to 80 °C
O=C(Nc1ccc(C(F)(F)F)cc1)Nc1cncc(C(=O)N2CCOCC2)c1; 114 to 118 °C
COc1ccc(-c2cc(NC(=O)Nc3cccc(C(F)(F)F)c3)[nH]n2)cc1; 189 to 194 °C

According to the records, this compound O=C(Nc1ccc(Oc2ccccc2)nc1)NC12CC3CC(CC(C3)C1)C2 displays melting point of 185 to 188 °C

====

- Tested on: soluble epoxide hydrolase (sEH)
- ASSAY_PROCEDURE: Fluorescent assay for mouse and human soluble epoxide hydrolase (CMNPC substrate)
- Assay type: biochemical
- TEST_CONDITIONS: inhibitor concentration 50 nM
MEASURED_QUANTITY: % Inh (%)

O=C(Nc1ccc(C(F)(F)F)cc1)Nc1ccc(Oc2ccccc2)nc1; 90
CC(=O)Nc1ccc(NC(=O)NC23CC4CC(CC(C4)C2)C3)cn1; 77
CCOC(=O)c1nnc(NC(=O)NC23CC4CC(CC(C4)C2)C3)s1; 91
O=C(Nc1ccc(Cl)cc1)Nc1ccc(C(=O)N2CCOCC2)s1; 76
